Just for reference, patent US20070281992A1 is where these values come from.

- System: Methicillin-Resistant Staphylococcus aureus Isolates
- TEST SUMMARY: MIC assay (NCCLS broth dilution), MRSA clinical isolates
- Assay type: cell-based
- CONDITION SUMMARY: Staphylococcus aureus, MRSA isolate 887, 24FEB06; read-out: Minimal Inhibitory Concentration
Would you kindly list MIC for each of these compounds?

Examples with their reported MIC follow.
substance_smiles=CN(C)[C@@H]1C(O)=C(C(N)=O)C(=O)[C@@]2(O)C(O)=C3C(=O)c4c(O)cccc4[C@@](C)(O)[C@H]3C[C@@H]12 reported="0.5 µg/mL"
substance_smiles=CO[C@@H]1[C@@H](OC(N)=O)[C@@H](O)[C@H](Oc2ccc3c(O)c(NC(=O)c4ccc(O)c(CC=C(C)C)c4)c(=O)oc3c2C)OC1(C)C reported="0.08 µg/mL"
substance_smiles=Cc1onc(-c2ccccc2)c1C(=O)N[C@@H]1C(=O)N2[C@@H]1SC(C)(C)[C@@H]2C(=O)O reported="> 32 µg/mL"
substance_smiles=CC(=O)NC[C@H]1CN(c2ccc(N3CCOCC3)c(F)c2)C(=O)O1 reported="4 µg/mL"

The record that follows has no MIC shown yet.
# lookup: MIC of CN(C)c1ccc(O)c2c1C[C@H]1C[C@H]3[C@H](N(C)C)C(O)=C(C(N)=O)C(=O)[C@@]3(O)C(O)=C1C2=O
0.12 µg/mL
